- measurement.target: rat diaphorase (Rattus norvegicus, UniProt P05982)
- Construct: purchased Sigma
- Sequence (P05982 2-274 limits assumed): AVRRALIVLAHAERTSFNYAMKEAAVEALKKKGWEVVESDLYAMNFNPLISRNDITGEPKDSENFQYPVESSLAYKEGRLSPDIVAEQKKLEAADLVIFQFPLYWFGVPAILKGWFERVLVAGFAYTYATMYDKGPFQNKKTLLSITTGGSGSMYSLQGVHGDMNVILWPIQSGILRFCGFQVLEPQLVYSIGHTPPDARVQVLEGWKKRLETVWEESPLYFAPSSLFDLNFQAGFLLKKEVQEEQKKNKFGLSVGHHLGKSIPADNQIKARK
- Assay type: biochemical
- study.conditions: 60 min; 10 uM NADH
Field: Fluorescence time course, Rat. Provide a value for each of the compounds that follow.
Number in FLUs, nothing else.

stdin: Tell me the measured Fluorescence time course, Rat of CC1=C(C)C(=O)C(C(C)(C)CC(=O)N(C)CCN(C)C(=O)Oc2ccc3c(c2)Oc2cc(O)ccc2C32OC(=O)c3ccccc32)=C(C)C1=O (stereo not shown) [PBI 4440] , please.
stdout: 180909

stdin: Can you handle CC1=CC(=O)C(C)=C(C(C)(C)CC(=O)N(C)CCN(C)C(=O)Oc2ccc3c(c2)Oc2cc(OC(=O)N(C)CCN(C)C(=O)CC(C)(C)C4=C(C)C(=O)C=C(C)C4=O)ccc2C32OC(=O)c3ccccc32)C1=O [PBI 4413] next?
stdout: 7397

stdin: Can you handle CC1=CC(=O)C(C)=C(C(C)(C)CC(=O)N(C)CCN(C)C(=O)Oc2ccc3c(c2)Oc2cc(O)ccc2C32OC(=O)c3ccccc32)C1=O (stereo not shown) [PBI 4412] next?
stdout: 170571

stdin: Can you handle CC1=C(C)C(=O)C(C(C)(C)CC(=O)N(C)CCN(C)C(=O)Oc2ccc3c(c2)Oc2cc(OC(=O)N(C)CCN(C)C(=O)CC(C)(C)C4=C(C)C(=O)C(C)=C(C)C4=O)ccc2C32OC(=O)c3ccccc32)=C(C)C1=O [PBI 4441] next?
stdout: 7387

###

Field: Fluorescence time course, Clostridium. Provide a value for each of the compounds that follow.
- Test system: Clostridium diaphorase
- assay.summary: Fluorescent NADH detection assay, Clostridium diaphorase
- Format: biochemical
- study.conditions: 2 min; 10 uM NADH
Number in FLUs, nothing else.

stdin: Tell me the measured Fluorescence time course, Clostridium of CC1=CC(=O)C(C)=C(C(C)(C)CC(=O)N(C)CCN(C)C(=O)Oc2ccc3c(c2)Oc2cc(OC(=O)N(C)CCN(C)C(=O)CC(C)(C)C4=C(C)C(=O)C=C(C)C4=O)ccc2C32OC(=O)c3ccccc32)C1=O [PBI 4413] , please.
stdout: 264

stdin: Can you handle CC1=CC(=O)C(C)=C(C(C)(C)CC(=O)N(C)CCN(C)C(=O)Oc2ccc3c(c2)Oc2cc(O)ccc2C32OC(=O)c3ccccc32)C1=O (stereo not shown) [PBI 4412] next?
stdout: 9933

stdin: Can you handle CC1=C(C)C(=O)C(C(C)(C)CC(=O)N(C)CCN(C)C(=O)Oc2ccc3c(c2)Oc2cc(O)ccc2C32OC(=O)c3ccccc32)=C(C)C1=O (stereo not shown) [PBI 4440] next?
stdout: 3611

stdin: Can you handle CC1=C(C)C(=O)C(C(C)(C)CC(=O)N(C)CCN(C)C(=O)Oc2ccc3c(c2)Oc2cc(OC(=O)N(C)CCN(C)C(=O)CC(C)(C)C4=C(C)C(=O)C(C)=C(C)C4=O)ccc2C32OC(=O)c3ccccc32)=C(C)C1=O [PBI 4441] next?
stdout: 354

###

- measurement.target: rat diaphorase (Rattus norvegicus)
- Construct: purchased Sigma
- Type: biochemical
- study.conditions: 10 μM NADH; 60 min; 1 u/ml rat diaphorase; substrate 920 μM
Field: FLUs. Provide a value for each of the molecules that follow.
# do not omit the unit; it follows the number

stdin: Tell me the measured FLUs of CC1=CC(=O)C(C)=C(C(C)(C)CC(=O)N(C)CCN(C)C(=O)Oc2ccc3c(c2)Oc2cc(OC(=O)N(C)CCN(C)C(=O)CC(C)(C)C4=C(C)C(=O)C=C(C)C4=O)ccc2C32OC(=O)c3ccccc32)C1=O , please.
stdout: 7397 FLUs

stdin: Can you handle CC1=C(C)C(=O)C(C(C)(C)CC(=O)N(C)CCN(C)C(=O)Oc2ccc3c(c2)Oc2cc(O)ccc2C32OC(=O)c3ccccc32)=C(C)C1=O (stereo not shown) next?
stdout: 180909 FLUs

stdin: Can you handle CC1=C(C)C(=O)C(C(C)(C)CC(=O)N(C)CCN(C)C(=O)Oc2ccc3c(c2)Oc2cc(OC(=O)N(C)CCN(C)C(=O)CC(C)(C)C4=C(C)C(=O)C(C)=C(C)C4=O)ccc2C32OC(=O)c3ccccc32)=C(C)C1=O next?
stdout: 7387 FLUs

stdin: Can you handle CC1=CC(=O)C(C)=C(C(C)(C)CC(=O)N(C)CCN(C)C(=O)Oc2ccc3c(c2)Oc2cc(O)ccc2C32OC(=O)c3ccccc32)C1=O (stereo not shown) next?
stdout: 170571 FLUs

###

Field: Fluorescence time course, Rat. Provide a value for each of the compounds that follow.
- measurement.target: rat diaphorase (Rattus norvegicus, UniProt P05982)
- Construct: purchased Sigma
- Assay type: biochemical
- study.conditions: 2 min; 10 uM NADH
Number in FLUs, nothing else.

stdin: Tell me the measured Fluorescence time course, Rat of CC1=C(C)C(=O)C(C(C)(C)CC(=O)N(C)CCN(C)C(=O)Oc2ccc3c(c2)Oc2cc(OC(=O)N(C)CCN(C)C(=O)CC(C)(C)C4=C(C)C(=O)C(C)=C(C)C4=O)ccc2C32OC(=O)c3ccccc32)=C(C)C1=O [PBI 4441] , please.
stdout: 302

stdin: Can you handle CC1=CC(=O)C(C)=C(C(C)(C)CC(=O)N(C)CCN(C)C(=O)Oc2ccc3c(c2)Oc2cc(OC(=O)N(C)CCN(C)C(=O)CC(C)(C)C4=C(C)C(=O)C=C(C)C4=O)ccc2C32OC(=O)c3ccccc32)C1=O [PBI 4413] next?
stdout: 180

stdin: Can you handle CC1=CC(=O)C(C)=C(C(C)(C)CC(=O)N(C)CCN(C)C(=O)Oc2ccc3c(c2)Oc2cc(O)ccc2C32OC(=O)c3ccccc32)C1=O (stereo not shown) [PBI 4412] next?
stdout: 10099

stdin: Can you handle CC1=C(C)C(=O)C(C(C)(C)CC(=O)N(C)CCN(C)C(=O)Oc2ccc3c(c2)Oc2cc(O)ccc2C32OC(=O)c3ccccc32)=C(C)C1=O (stereo not shown) [PBI 4440] next?
stdout: 6473

###

Field: Fluorescence time course, Clostridium. Provide a value for each of the compounds that follow.
- System: Clostridium diaphorase
- assay.summary: Fluorescent NADH detection assay, Clostridium diaphorase
- Assay type: biochemical
- study.conditions: 5 min; 10 uM NADH
Number in FLUs, nothing else.

stdin: Tell me the measured Fluorescence time course, Clostridium of CC1=CC(=O)C(C)=C(C(C)(C)CC(=O)N(C)CCN(C)C(=O)Oc2ccc3c(c2)Oc2cc(O)ccc2C32OC(=O)c3ccccc32)C1=O (stereo not shown) [PBI 4412] , please.
stdout: 33881

stdin: Can you handle CC1=C(C)C(=O)C(C(C)(C)CC(=O)N(C)CCN(C)C(=O)Oc2ccc3c(c2)Oc2cc(O)ccc2C32OC(=O)c3ccccc32)=C(C)C1=O (stereo not shown) [PBI 4440] next?
stdout: 10142

stdin: Can you handle CC1=CC(=O)C(C)=C(C(C)(C)CC(=O)N(C)CCN(C)C(=O)Oc2ccc3c(c2)Oc2cc(OC(=O)N(C)CCN(C)C(=O)CC(C)(C)C4=C(C)C(=O)C=C(C)C4=O)ccc2C32OC(=O)c3ccccc32)C1=O [PBI 4413] next?
stdout: 698

stdin: Can you handle CC1=C(C)C(=O)C(C(C)(C)CC(=O)N(C)CCN(C)C(=O)Oc2ccc3c(c2)Oc2cc(OC(=O)N(C)CCN(C)C(=O)CC(C)(C)C4=C(C)C(=O)C(C)=C(C)C4=O)ccc2C32OC(=O)c3ccccc32)=C(C)C1=O [PBI 4441] next?
stdout: 576

###

- measurement.target: rat diaphorase (Rattus norvegicus)
- Construct: purchased Sigma
- Assay type: biochemical
- study.conditions: 10 min; 10 uM NADH
Field: Fluorescence time course, Rat. Provide a value for each of the molecules that follow.
Number in FLUs, nothing else.

stdin: Tell me the measured Fluorescence time course, Rat of CC1=CC(=O)C(C)=C(C(C)(C)CC(=O)N(C)CCN(C)C(=O)Oc2ccc3c(c2)Oc2cc(O)ccc2C32OC(=O)c3ccccc32)C1=O (stereo not shown) , please.
stdout: 62502

stdin: Can you handle CC1=C(C)C(=O)C(C(C)(C)CC(=O)N(C)CCN(C)C(=O)Oc2ccc3c(c2)Oc2cc(OC(=O)N(C)CCN(C)C(=O)CC(C)(C)C4=C(C)C(=O)C(C)=C(C)C4=O)ccc2C32OC(=O)c3ccccc32)=C(C)C1=O next?
stdout: 1961

stdin: Can you handle CC1=C(C)C(=O)C(C(C)(C)CC(=O)N(C)CCN(C)C(=O)Oc2ccc3c(c2)Oc2cc(O)ccc2C32OC(=O)c3ccccc32)=C(C)C1=O (stereo not shown) next?
stdout: 73216

stdin: Can you handle CC1=CC(=O)C(C)=C(C(C)(C)CC(=O)N(C)CCN(C)C(=O)Oc2ccc3c(c2)Oc2cc(OC(=O)N(C)CCN(C)C(=O)CC(C)(C)C4=C(C)C(=O)C=C(C)C4=O)ccc2C32OC(=O)c3ccccc32)C1=O next?
stdout: 1091
